Origin of the recorded values: patent US20230287088A1

Assay target: T1, Mouse-Fc-tagged SARS-CoV2 S1-RBD (Sino Biologicals) recombinant protein (SARS-CoV-2, UniProt P0DTC2 319-541)
T1 construct: domain: S1-RBD
Experimental details: ELISA on coated S1-RBD-mFc
Readings of EC50 for the listed binders
// return numeric value only (unit: ng/mL, not printed)

Worked cases, EC50 given:
Return reported EC50; argument: P043.A.00036.C07 (antibody, V domains shown, also called 448; protein sample ID 448) VH: QSLEESGGDLVKPGASLTLTCTASGFSFSSSYWICWVRQAPGKGLEWIGCIYTGSGSTWYASWAKGRFTISKTSSTTVTLQMTSLTAADTATYFCARGYGSYMYDFWGPGTLVTVSS VL: DVVMTQTPASVEAAVGGTVTIKCQASQSISTALAWYQQKPGQPPKLLIYSASTLESGVPSRFKGSGSGTEFTLAISDLESADAATYYCQGADGSSSSFGGGTEVVVK
7

And what about the binder P043.A.00095.D06 (protein sample ID 470) (antibody, V domains shown, also called S1 targeting antibody 470; anti-S1-antibody 470) VH: QEQLEESGGDLVKPEGSLTLTCTASGFSFSSNYWICWVRQAPGKGLEWIGCIYIGSGDTYYASWAKGRFTISKTSSTTVTLQMTSLTAADTATYFCARSYTPGSYYNMNLWGPGTLVTVSS VL: DVVMTQTPSSVSAAVGGTVTINCQASQQISNELSWYQQKSGQPPKLLIYDASDLASGVPSRFKGSGSGTEFTLTISDLESADAATYYCQSTGGASSDGNAFGGGTEVVVK ?
8.6

And what about the binder P043.A.00117.C08 (protein sample ID 469) (antibody, V domains shown) VH: QSLEESGGGLVKPEGSLTLTCKASGFDLNTYYYMCWVRQAPGKGLEWIACIGTSDSGHTAYASWARGRFTISKTSSTTVTLQMTGLTAADTATYFCARGGRSVGDGVDLWGPGTLVTVSS VL: DIVMTQTPASVEAAVGGTVTIKCQASQSISSWLAWYQQKPGQPPKLLIYDAFDLASGVPSRFKGSGSGTEFTLTISDLESADAATYYCQSYLYGESGSHGFGFGGGTEVVVR ?
6.2

Further cases:
Return reported EC50; argument: P043.A.00023.A08 (protein sample ID 446) (antibody, V domains shown) VH: QSVEESGGRLVTPGTPLTLTCTVSGFSLSKYAMSWVRQAPGKGLEWIGIISSGGSTYYASWAKGRFTISKTSSTTVDLKITSPTTEDTATYFCARAGYPGYSPHYFNIWGPGTLVTVSL VL: AIQMTQSPSSLAASVGDTVTITCKASEDIGYELNWYQQKLGIAPKLLIYGANTLESGVPSRFTGSGSETDYTLTISSVQAEDAGIYYCQQGYSTPPTFGAGTKVEIK
8.1

And what about the binder P043.A.00032.C04 (antibody, V domains shown, also called 452; protein sample ID 452) VH: QSLEESGGRLVTPGTPLTLTCTASGFSLSSYWMSWVRQAPGKGLEWIGIIYVSGSTYYASWAKGRFTISKTSTTVDLKMTSLTTEDTATYFCARVDYSTGWPLFNIWGPGTLVTVSL VL: AQVLTQTASPVSAAVGGTVTINCQSSQSVYDNNWLGWYQQKPGQPPKLLIYGASILASGVPSRFKGSGSGTQFTLTISDLESDDAATYYCQGGCSGNTFVFGGGTEVVVK ?
7
